System: Saccharomyces cerevisiae
Assay: protein stability index of tFT-peptide fusion (C-terminal peptide) (PSI (0-1 scale)); higher = more stable (slower turnover)
Settings: genetic background: das1 deletion; temperature: 30 C
MEASURED METRIC: protein stability index

*Q* Consider the sequence PLKDLDPNAFRG [YOX1 C-terminal 12 aa] and give its measured protein stability index.
*A* 0.686

*Q* Consider the sequence FSALVLRGVRGE [YBR196C-B C-terminal 12 aa] and give its measured protein stability index.
*A* 0.698

*Q* Consider the sequence RMIEYLEEYQAW [FRE4 C-terminal 12 aa] and give its measured protein stability index.
*A* 0.706

*Q* Consider the sequence LYHKDADTIFHA [IRC11 C-terminal 12 aa] and give its measured protein stability index.
*A* 0.708

*Q* Consider the sequence VDHLTDPDIYIP [BUB2 C-terminal 12 aa] and give its measured protein stability index.
*A* 0.7

*Q* Consider the sequence AKPKYEKILIDN [RTC2 C-terminal 12 aa] and give its measured protein stability index.
*A* 0.703

*Q* Consider the sequence KEKKDKKKKSKD [NOP56 C-terminal 12 aa] and give its measured protein stability index.
*A* 0.686

*Q* Consider the sequence IDIPVQVKNSFI [YNR068C C-terminal 12 aa] and give its measured protein stability index.
*A* 0.711

*Q* Consider the sequence DPKLYFDATILS [TDA3 C-terminal 12 aa] and give its measured protein stability index.
*A* 0.703

*Q* Consider the sequence SMALRTVSILEN [YGL152C C-terminal 12 aa] and give its measured protein stability index.
*A* 0.683

*Q* Consider the sequence THKKPGFENYSI [IRC13 C-terminal 12 aa] and give its measured protein stability index.
*A* 0.706

*Q* Consider the sequence VSGFKDEVLETV [RPS1B C-terminal 12 aa] and give its measured protein stability index.
*A* 0.679

*Q* Consider the sequence YRDDPNQKNYKD [MSS4 C-terminal 12 aa] and give its measured protein stability index.
*A* 0.691

*Q* Consider the sequence FGKYLPLNYPSE [ASG1 C-terminal 12 aa] and give its measured protein stability index.
*A* 0.717

*Q* Consider the sequence SIKLTFGFGAVL [AHA1 C-terminal 12 aa] and give its measured protein stability index.
*A* 0.698

*Q* Consider the sequence RERAKKLVTWLI [SSY1 C-terminal 12 aa] and give its measured protein stability index.
*A* 0.67

*Q* Consider the sequence QNNSQGFLREII [TDA7 C-terminal 12 aa] and give its measured protein stability index.
*A* 0.696

*Q* Consider the sequence PTFLIPLRLCFV [EMA19 C-terminal 12 aa] and give its measured protein stability index.
*A* 0.329

*Q* Consider the sequence SGSGVHVIKRVG [ESS1 C-terminal 12 aa] and give its measured protein stability index.
*A* 0.701

*Q* Consider the sequence EPKYVDEDDWSD [CEG1 C-terminal 12 aa] and give its measured protein stability index.
*A* 0.694

*Q* Consider the sequence SNGFKEWRKSLK [RAI1 C-terminal 12 aa] and give its measured protein stability index.
*A* 0.682

*Q* Consider the sequence KELEFGLDRKYF [SLT2 C-terminal 12 aa] and give its measured protein stability index.
*A* 0.699

*Q* Consider the sequence QVVDTIKDVHRC [YBR197C C-terminal 12 aa] and give its measured protein stability index.
*A* 0.7

*Q* Consider the sequence EAQLSCSEESLA [COS1 C-terminal 12 aa] and give its measured protein stability index.
*A* 0.691

*Q* Consider the sequence RKSENYLNGRQT [YNL067W-B C-terminal 12 aa] and give its measured protein stability index.
*A* 0.681

*Q* Consider the sequence EYTDFMSWMQDN [YER186C C-terminal 12 aa] and give its measured protein stability index.
*A* 0.74

*Q* Consider the sequence SNSSSSQKAAKE [HST2 C-terminal 12 aa] and give its measured protein stability index.
*A* 0.71

*Q* Consider the sequence YGNWSKTVADLN [BAT1 C-terminal 12 aa] and give its measured protein stability index.
*A* 0.692

*Q* Consider the sequence ERRLSDLQQYHI [TMA10 C-terminal 12 aa] and give its measured protein stability index.
*A* 0.698

*Q* Consider the sequence IYHKDGNKVLKE [YDR391C C-terminal 12 aa] and give its measured protein stability index.
*A* 0.706

*Q* Consider the sequence VCKFASWLFSKI [AMD2 C-terminal 12 aa] and give its measured protein stability index.
*A* 0.72

*Q* Consider the sequence EKQSSTASEKAA [THI7 C-terminal 12 aa] and give its measured protein stability index.
*A* 0.681

*Q* Consider the sequence FHLNAKTRESEI [YDL162C C-terminal 12 aa] and give its measured protein stability index.
*A* 0.702

*Q* Consider the sequence LKQENAYLLIRR [RPB8 C-terminal 12 aa] and give its measured protein stability index.
*A* 0.693

*Q* Consider the sequence IIAIVFKILSPN [FAR10 C-terminal 12 aa] and give its measured protein stability index.
*A* 0.32

*Q* Consider the sequence KHGTMQFYWRKT [YOR225W C-terminal 12 aa] and give its measured protein stability index.
*A* 0.692

*Q* Consider the sequence PLNDQVCPNSPL [YLR154W-F C-terminal 12 aa] and give its measured protein stability index.
*A* 0.727

*Q* Consider the sequence PRDEQDSRKRNR [IBD2 C-terminal 12 aa] and give its measured protein stability index.
*A* 0.699

*Q* Consider the sequence VVCMVVLLAVLS [VAM3 C-terminal 12 aa] and give its measured protein stability index.
*A* 0.148

*Q* Consider the sequence SKLVKEYSVELR [MSF1 C-terminal 12 aa] and give its measured protein stability index.
*A* 0.687
